System: Trypanosoma cruzi
METHOD_SUMMARY: Antitrypanosomal activity against Trypanosoma cruzi epimastigote assessed as inhibition of proliferation by measuring cellular ATP level incubated for 24 hrs by Cell Titer-Glo 2.0 assay
Format: functional, organism-based
ATTRIBUTE_MEASURED: IC50

Query block: So what does the record say about IC50 for C\C(=C/C=C/C=C/[C@H]1[C@@H](C)[C@H](O)[C@@H](O)[C@H]2[C@H](O)[C@@H](C)C[C@@H](C)[C@H]12)C(=O)O ?
Result block: 46 µM

----------
Test system: Trypanosoma cruzi
METHOD_SUMMARY: Antitrypanosomal activity against Trypanosoma cruzi Tulahuen amastigotes infected in human HT-1080 cells assessed as inhibition of parasite growth incubated for 3 days by light microscopic analysis
Format: functional, organism-based
CONDITION_DESCRIPTION: HT-1080, 72 h
ATTRIBUTE_MEASURED: IC50 (µM)
Report the value in µM with no unit label.

Query block: What measured IC50 is associated with C\C(=C/C=C/C=C/[C@H]1[C@@H](C)[C@H](O)[C@@H](O)[C@H]2[C@H](O)[C@@H](C)C[C@@H](C)[C@H]12)C(=O)O on Trypanosoma cruzi?
Result block: 27
